system-tested: Hck (UniProt P08631)
Sequence (P08631 whole entry, looked up): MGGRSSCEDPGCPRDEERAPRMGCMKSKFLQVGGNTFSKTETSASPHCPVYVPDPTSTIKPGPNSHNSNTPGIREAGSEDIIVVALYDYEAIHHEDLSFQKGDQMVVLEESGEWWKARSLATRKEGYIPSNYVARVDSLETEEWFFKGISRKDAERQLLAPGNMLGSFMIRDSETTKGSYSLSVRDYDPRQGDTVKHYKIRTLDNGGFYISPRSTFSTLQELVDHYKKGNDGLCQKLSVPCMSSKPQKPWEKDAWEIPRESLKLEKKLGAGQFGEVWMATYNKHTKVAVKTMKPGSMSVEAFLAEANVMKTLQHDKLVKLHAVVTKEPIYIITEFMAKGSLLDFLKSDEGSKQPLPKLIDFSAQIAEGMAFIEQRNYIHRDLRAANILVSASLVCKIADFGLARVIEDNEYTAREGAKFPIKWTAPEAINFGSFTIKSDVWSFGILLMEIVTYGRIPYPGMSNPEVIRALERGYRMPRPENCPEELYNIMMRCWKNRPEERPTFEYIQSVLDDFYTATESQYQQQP
procedure-details: phosphorylation enrichment, bacterial display (enrichment ratio); higher = better substrate or ligand; peptides without Tyr show the background;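 further: 11-residue human phosphosite peptides and single-mutation variants displayed on the E. coli surface, counted by deep sequencing, each peptide's frequency after selection divided by its frequency in the unselected input library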;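 further: frequency after pTyr selection over input frequency; kinase dosed for 20-30% of maximal phosphorylation in three min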
value-type: phosphorylation enrichment
Just the number.

Note to self: phosphorylation enrichment recorded for FFRKVYHLASV [RBL1_Y796_YF] was 0.337

Note to self: phosphorylation enrichment recorded for GRQGIYTENER [GPR143_Y231] was 0.439

Note to self: phosphorylation enrichment recorded for SLGKGYSDGGC [MC4R_Y35] was 0.427

Note to self: phosphorylation enrichment recorded for DLDLTYIFPNI [PTEN_Y27_YF] was 1.76

Note to self: phosphorylation enrichment recorded for IPTPAYQSLPA [PDCD6IP_Y727_S730L] was 0.941

Note to self: phosphorylation enrichment recorded for AELVPYFMEHH [PTPN11_Y80_Q79P_YF] was 0.562

Note to self: phosphorylation enrichment recorded for FCRHNYGAVES [HLA-DRB1_Y112_V114A_YF] was 0.441

Note to self: phosphorylation enrichment recorded for RIAFQYGVTDL [MYBPC3_Y340] was 0.647

Note to self: phosphorylation enrichment recorded for NPQKPYFIRLY [WAS_Y83_S82P] was 0.443

Note to self: phosphorylation enrichment recorded for EFNLMYDGAKE [IRF6_Y97_T100A] was 0.702

Note to self: phosphorylation enrichment recorded for CSGNCYLDIRP [FBN1_Y1535_R1530C] was 0.504

Note to self: phosphorylation enrichment recorded for SFPSTYRFERG [INPPL1_Y661_P659S_YF] was 0.479

Note to self: phosphorylation enrichment recorded for LPSKDYAEVGR [HP_Y272] was 0.951

Note to self: phosphorylation enrichment recorded for VIVRMYDFHVL [RPF2_Y109_G106V_YF] was 0.488

----------
system-tested: FGFR3 (UniProt P22607)
Sequence (P22607 whole entry, looked up): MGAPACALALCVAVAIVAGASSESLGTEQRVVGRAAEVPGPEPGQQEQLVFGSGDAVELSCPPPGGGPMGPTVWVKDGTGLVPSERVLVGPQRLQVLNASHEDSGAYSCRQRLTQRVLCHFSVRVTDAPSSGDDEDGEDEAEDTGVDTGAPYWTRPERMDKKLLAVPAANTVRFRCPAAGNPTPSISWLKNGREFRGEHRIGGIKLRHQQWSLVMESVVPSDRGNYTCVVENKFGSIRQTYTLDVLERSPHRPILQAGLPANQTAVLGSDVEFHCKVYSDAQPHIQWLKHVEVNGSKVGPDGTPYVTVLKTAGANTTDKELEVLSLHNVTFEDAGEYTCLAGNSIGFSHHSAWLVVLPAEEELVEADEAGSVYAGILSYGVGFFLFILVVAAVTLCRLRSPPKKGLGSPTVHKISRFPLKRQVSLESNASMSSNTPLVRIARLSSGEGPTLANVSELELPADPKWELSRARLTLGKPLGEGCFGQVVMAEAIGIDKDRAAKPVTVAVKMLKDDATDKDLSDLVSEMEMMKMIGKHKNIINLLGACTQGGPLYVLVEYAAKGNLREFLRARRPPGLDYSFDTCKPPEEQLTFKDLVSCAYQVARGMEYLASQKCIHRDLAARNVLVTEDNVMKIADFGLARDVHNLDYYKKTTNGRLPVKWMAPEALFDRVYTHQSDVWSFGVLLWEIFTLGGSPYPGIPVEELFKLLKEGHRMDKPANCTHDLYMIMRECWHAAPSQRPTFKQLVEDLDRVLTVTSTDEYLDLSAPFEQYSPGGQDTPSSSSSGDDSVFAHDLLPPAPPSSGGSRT
procedure-details: phosphorylation enrichment, bacterial display (enrichment ratio); higher = better substrate or ligand; peptides without Tyr show the background
Would you mind labelling by phosphorylation enrichment? At or over 0.6 is 1, under is -1.

Req: Answer whether phosphorylation enrichment of EWRSPYGLTPR [GRIN3B_Y601] is greater than or equal to 0.6.
Resp: -1

Req: Answer whether phosphorylation enrichment of FSPCDYQPCLA [TNS1_Y798_Y796C_YF] is greater than or equal to 0.6.
Resp: 1

Req: Answer whether phosphorylation enrichment of PVGVLYEVKVY [PTS_Y128_K129E] is greater than or equal to 0.6.
Resp: 1

Req: Answer whether phosphorylation enrichment of LPEHPYHSRPR [NDUFA8_Y142_N140H] is greater than or equal to 0.6.
Resp: 1

Req: Answer whether phosphorylation enrichment of MTRDIYETDFF [INSR_Y1185_YF] is greater than or equal to 0.6.
Resp: 1

Req: Answer whether phosphorylation enrichment of PPKFFDTRKLL [CYBB_Y41_Y41D] is greater than or equal to 0.6.
Resp: -1

Req: Answer whether phosphorylation enrichment of QSSEGYDLGDR [KIAA1210_Y564_G565D] is greater than or equal to 0.6.
Resp: 1

Req: Answer whether phosphorylation enrichment of DSYWSYCNAVA [SLC20A2_Y436_S434W] is greater than or equal to 0.6.
Resp: 1

Req: Answer whether phosphorylation enrichment of LEQGEYALRSH [HADHB_Y244_D242G] is greater than or equal to 0.6.
Resp: -1

Req: Answer whether phosphorylation enrichment of KLVDVYVNDAF [PGK1_Y161_G158V] is greater than or equal to 0.6.
Resp: 1

Req: Answer whether phosphorylation enrichment of FHLGKYLQEVL [KLB_Y910_Y906H_YF] is greater than or equal to 0.6.
Resp: 1

Req: Answer whether phosphorylation enrichment of MARDISRASFF [ALK_Y1278_Y1278S_YF] is greater than or equal to 0.6.
Resp: -1

----------
system-tested: EPHB1 (UniProt P54762)
Sequence (P54762 whole entry, looked up): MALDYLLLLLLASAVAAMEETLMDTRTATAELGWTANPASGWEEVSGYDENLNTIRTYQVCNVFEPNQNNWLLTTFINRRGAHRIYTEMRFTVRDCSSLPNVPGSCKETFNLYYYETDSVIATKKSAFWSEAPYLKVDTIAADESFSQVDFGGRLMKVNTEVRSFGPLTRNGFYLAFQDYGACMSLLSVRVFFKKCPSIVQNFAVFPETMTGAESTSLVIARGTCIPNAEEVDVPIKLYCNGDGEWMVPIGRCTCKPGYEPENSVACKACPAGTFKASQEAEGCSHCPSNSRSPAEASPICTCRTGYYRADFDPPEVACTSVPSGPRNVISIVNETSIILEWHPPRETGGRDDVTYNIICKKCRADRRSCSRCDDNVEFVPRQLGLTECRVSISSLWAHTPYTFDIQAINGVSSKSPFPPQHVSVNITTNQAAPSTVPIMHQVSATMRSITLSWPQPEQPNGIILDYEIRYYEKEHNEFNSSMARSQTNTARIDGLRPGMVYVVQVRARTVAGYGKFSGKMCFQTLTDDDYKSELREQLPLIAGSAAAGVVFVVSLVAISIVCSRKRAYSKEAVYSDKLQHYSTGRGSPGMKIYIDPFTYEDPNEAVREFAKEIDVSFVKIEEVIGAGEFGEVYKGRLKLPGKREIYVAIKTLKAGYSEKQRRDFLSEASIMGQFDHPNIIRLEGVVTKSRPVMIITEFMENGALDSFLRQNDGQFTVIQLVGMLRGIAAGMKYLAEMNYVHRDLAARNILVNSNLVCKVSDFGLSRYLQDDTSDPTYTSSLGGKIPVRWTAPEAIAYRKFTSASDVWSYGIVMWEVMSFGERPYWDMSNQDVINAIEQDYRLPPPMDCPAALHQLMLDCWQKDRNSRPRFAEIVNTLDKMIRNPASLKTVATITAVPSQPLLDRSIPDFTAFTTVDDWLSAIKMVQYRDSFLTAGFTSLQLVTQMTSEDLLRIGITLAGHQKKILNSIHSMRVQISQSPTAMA
procedure-details: phosphorylation enrichment, bacterial display (enrichment ratio); higher = better substrate or ligand; peptides without Tyr show the background
I'd appreciate it if you could label each record using phosphorylation enrichment and these ranges: group 1 (below 0.5), group 2 (0.5 to below 0.8), group 3 (0.8 or more)

Req: Hello team, could you let me know which band the following sequence falls into: VAVVQYSGMGQ [COL6A1_Y878_T881M]
Resp: group 1

Req: Hello team, could you let me know which band the following sequence falls into: SCRSKYVGLWG [KCNQ1_Y184_G179S]
Resp: group 1

Req: Hello team, could you let me know which band the following sequence falls into: EFNLMYDGAKE [IRF6_Y97_T100A]
Resp: group 2

Req: Hello team, could you let me know which band the following sequence falls into: WIPIQYPIISE [NOG_Y222]
Resp: group 1

Req: Hello team, could you let me know which band the following sequence falls into: QLGLQYSQGLV [EIF2B4_Y214_R209Q]
Resp: group 1

Req: Hello team, could you let me know which band the following sequence falls into: NNDLCYWVLEL [IARS1_Y434_P437L]
Resp: group 3

Req: Hello team, could you let me know which band the following sequence falls into: YDGKEYDPVEA [MAPRE2_Y167]
Resp: group 2

Req: Hello team, could you let me know which band the following sequence falls into: RLSVDYSKKSK [TUBA3E_Y161]
Resp: group 3

Req: Hello team, could you let me know which band the following sequence falls into: VGTKRYMAPKV [ACVRL1_Y375_E379K]
Resp: group 1

Req: Hello team, could you let me know which band the following sequence falls into: EIIPFYGMSSF [FNDC3B_Y175_T179S_YF]
Resp: group 2

Req: Hello team, could you let me know which band the following sequence falls into: SSMIDYNPLEK [MYOC_Y479]
Resp: group 2

Req: Hello team, could you let me know which band the following sequence falls into: FMKEPYIQSRF [HIPK4_Y175_V171M_YF]
Resp: group 1

Req: Hello team, could you let me know which band the following sequence falls into: SYSGEYGSGGG [ZG16_Y30_G32S]
Resp: group 1

Req: Hello team, could you let me know which band the following sequence falls into: RGVTRYIFNRE [HLA-DQB1_Y62_Y58G_YF]
Resp: group 3

Req: Hello team, could you let me know which band the following sequence falls into: PLGPLYASSNT [INSR_Y992_P997T]
Resp: group 3

Req: Hello team, could you let me know which band the following sequence falls into: KSFDMYSGDVM [FAM3D_Y122_A118S]
Resp: group 3

Req: Hello team, could you let me know which band the following sequence falls into: ATPKGYELDAS [OTC_Y223_P225L]
Resp: group 1

Req: Hello team, could you let me know which band the following sequence falls into: SLMNQYVNKKF [RAB7A_Y28]
Resp: group 1

Req: Hello team, could you let me know which band the following sequence falls into: FADIAYSFRHG [PAH_Y166_N167S_YF]
Resp: group 1

Req: Hello team, could you let me know which band the following sequence falls into: FSQETYYRVSN [ABCD1_Y180_Q178E]
Resp: group 3

Req: Hello team, could you let me know which band the following sequence falls into: CGADSYEMEED [EGFR_Y316]
Resp: group 2

Req: Hello team, could you let me know which band the following sequence falls into: LVRAFYCERRW [CARD11_Y970_R975W]
Resp: group 2

Req: Hello team, could you let me know which band the following sequence falls into: DVLVEYQGEGR [GNS_Y416]
Resp: group 1

Req: Hello team, could you let me know which band the following sequence falls into: HLMLQYDAVVN [SLC25A32_Y152_R147H]
Resp: group 3

Req: Hello team, could you let me know which band the following sequence falls into: CNPLRYPVLMS [OR2T1_Y182]
Resp: group 2

Req: Hello team, could you let me know which band the following sequence falls into: LKRIAYFLCLL [LGI1_Y21]
Resp: group 2

Req: Hello team, could you let me know which band the following sequence falls into: MSRDVYSIDFF [NTRK2_Y702_T704I_YF]
Resp: group 3

Req: Hello team, could you let me know which band the following sequence falls into: PLLTDYSPQLQ [OTC_Y345_S340P]
Resp: group 3

Req: Hello team, could you let me know which band the following sequence falls into: KGIDRYNPENL [EIF3K_Y21]
Resp: group 1

Req: Hello team, could you let me know which band the following sequence falls into: RQSTLYSFFPT [MSH6_Y8_K13T]
Resp: group 3

Req: Hello team, could you let me know which band the following sequence falls into: YSKTQYNQVPR [CXADR_Y318_S323R]
Resp: group 1

Req: Hello team, could you let me know which band the following sequence falls into: LLVVLCKFRCF [PSEN1_Y154_Y154C_YF]
Resp: group 2

Req: Hello team, could you let me know which band the following sequence falls into: AAYNKYDQERF [CDC73_Y293_R292K]
Resp: group 1

Req: Hello team, could you let me know which band the following sequence falls into: PYGQWYESHYA [RPS8_Y113_R110G]
Resp: group 3

Req: Hello team, could you let me know which band the following sequence falls into: SAAAIYMVRHP [PMP22_Y117_T118M]
Resp: group 3

Req: Hello team, could you let me know which band the following sequence falls into: FKEVVYQAMEE [TACC3_Y684_E680K]
Resp: group 3

Req: Hello team, could you let me know which band the following sequence falls into: SEDSEYFKAFE [CASQ2_Y178_YF]
Resp: group 2

Req: Hello team, could you let me know which band the following sequence falls into: CTTILYNFMCN [TP53_Y234_H233L_YF]
Resp: group 2

Req: Hello team, could you let me know which band the following sequence falls into: KMATAYIRSMS [BCO1_Y264_R267S]
Resp: group 1

Req: Hello team, could you let me know which band the following sequence falls into: RWQQLYDTLNA [EIF3M_Y351_Q346R]
Resp: group 3

Req: Hello team, could you let me know which band the following sequence falls into: EEAAGYAQESQ [CAMKV_Y491]
Resp: group 2

Req: Hello team, could you let me know which band the following sequence falls into: SKEPYYVHCIK [MYO1D_Y586_R588H]
Resp: group 2

Req: Hello team, could you let me know which band the following sequence falls into: FQGRRYDCDCD [CRYGS_Y21]
Resp: group 1

Req: Hello team, could you let me know which band the following sequence falls into: ADEQIYWQIAA [CSKtide_2014]
Resp: group 3

Req: Hello team, could you let me know which band the following sequence falls into: EYKDAYKFAAD [BRDT_Y335]
Resp: group 2

Req: Hello team, could you let me know which band the following sequence falls into: FHLGKYLQEVL [KLB_Y910_Y906H_YF]
Resp: group 1

Req: Hello team, could you let me know which band the following sequence falls into: WGTAEYDSVVA [MAP1A_Y1883]
Resp: group 2

Req: Hello team, could you let me know which band the following sequence falls into: MARDISRASFF [ALK_Y1278_Y1278S_YF]
Resp: group 1

Req: Hello team, could you let me know which band the following sequence falls into: TMKSHYMELYD [BBS2_Y644_R643H]
Resp: group 3

Req: Hello team, could you let me know which band the following sequence falls into: SSENPYATIKD [MEGF10_Y1030]
Resp: group 1

Req: Hello team, could you let me know which band the following sequence falls into: TEAGNYKLCFD [TMED1_Y103_D102N]
Resp: group 2

Req: Hello team, could you let me know which band the following sequence falls into: ITQRAYRRHLL [SCN1A_Y1926_I1922T]
Resp: group 1

Req: Hello team, could you let me know which band the following sequence falls into: DLNATYRTIQG [U2SURP_Y634]
Resp: group 2
